Where do these numbers come from? They come from PubChem BioAssay AID449749.

Give AC50 for every item shown.
Target: Replicative DNA helicase DnaB (Mycobacterium tuberculosis (strain ATCC 25618 / H37Rv)) (UniProt P9WMR3)
Sequence (P9WMR3 whole entry, looked up): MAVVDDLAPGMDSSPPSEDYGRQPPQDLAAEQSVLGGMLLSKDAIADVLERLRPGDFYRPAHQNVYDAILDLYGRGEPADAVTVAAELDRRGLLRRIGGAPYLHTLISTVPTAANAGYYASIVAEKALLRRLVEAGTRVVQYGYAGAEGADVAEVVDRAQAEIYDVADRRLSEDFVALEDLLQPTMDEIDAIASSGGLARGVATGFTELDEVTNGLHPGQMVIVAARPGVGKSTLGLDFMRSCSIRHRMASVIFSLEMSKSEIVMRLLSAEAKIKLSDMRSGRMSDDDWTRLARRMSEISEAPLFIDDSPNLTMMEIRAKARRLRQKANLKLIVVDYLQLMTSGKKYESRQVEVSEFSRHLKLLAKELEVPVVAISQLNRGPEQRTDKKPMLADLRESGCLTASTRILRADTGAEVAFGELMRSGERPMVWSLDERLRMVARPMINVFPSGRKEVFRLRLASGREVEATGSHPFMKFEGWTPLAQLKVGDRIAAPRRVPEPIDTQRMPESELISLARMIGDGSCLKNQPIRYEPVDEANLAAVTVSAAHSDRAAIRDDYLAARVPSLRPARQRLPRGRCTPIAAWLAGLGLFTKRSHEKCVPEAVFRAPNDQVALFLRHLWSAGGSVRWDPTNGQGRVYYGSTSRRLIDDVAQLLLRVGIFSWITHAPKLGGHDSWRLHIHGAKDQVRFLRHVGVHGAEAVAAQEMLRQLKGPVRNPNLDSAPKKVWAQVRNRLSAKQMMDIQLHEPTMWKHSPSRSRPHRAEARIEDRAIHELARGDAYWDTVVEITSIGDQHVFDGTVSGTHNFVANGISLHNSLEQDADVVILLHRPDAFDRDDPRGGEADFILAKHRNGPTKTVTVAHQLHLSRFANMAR
Experiment: DnaB intein splicing inhibitors, dose response, biochemical, M. tuberculosis H37Rv, cell-free fluorescence (AID 449749)
Records with an inconclusive call do not appear. Active and inactive are the calls of the source. No rule for the calls is given here.

Task: What measured AC50 goes with Cc1[nH][nH]c(=O)c1C(c1ccccc1[N+](=O)[O-])C(C#N)C#N (centres undefined) ?
Output: > 12 µM (inactive)

Task: What measured AC50 goes with COc1ccc2ccc3c(c2c1)N=C[C@]1(O3)N(C)c2ccccc2C1(C)C ?
Output: > 38 µM (inactive)

Task: What measured AC50 goes with Oc1cc(O)c2c(c1)O[C@H](c1ccc(O)c(O)c1)[C@H](O)C2 ?
Output: > 38 µM (inactive)

Task: What measured AC50 goes with Cc1[nH][nH]c(=O)c1[C@@H](c1ccccc1[N+](=O)[O-])C(C#N)C#N ?
Output: > 38 µM (inactive)
